Here the recorded Tmax is given for each entry.
- protocol: Pharmacokinetic (PK) experiment, oral administration in rats
- Assay type: in vivo, Male SD rats
- condition context: male, SD, rat, plasma, 20 mg/kg
Reply numerically in h, unit not repeated.

Illustrative cases are given below, each with its answer.
                                   molecule  quantity  readout_value
0  O=C(CCCCCc1ccccc1)NCC1CCN(c2ccc(-c3cn[nH]c3)cc2)CC1 [Compound 113]      Tmax           1.33
1  O=C1CCCN1CC1CCN(c2c(F)cc(-c3cn[nH]c3)cc2F)CC1 [Compound 5]      Tmax           2.67
2  O=C1CCCCN1CC1CCN(c2ccc(-c3cn[nH]c3)c(F)c2F)CC1 [Compound 26]      Tmax           1.67
3  O=C1CCCN1Cc1ccc(C2CCN(c3cn[nH]c3)CC2)cc1 [Reference 83, reference compound]      Tmax            1.5
4  O=C1CCCN1CC1CCN(c2ccc(-c3cn[nH]c3)cc2F)CC1 [Compound 2]      Tmax           3.33

// recorded Tmax for O=C(C1CCN(c2ccc(-c3cn[nH]c3)cc2F)CC1)N1CC2CCCC2C1 (stereo not drawn) [Compound 153] : 2

Tmax reported for this molecule O=C(C1CCCC1)N1CCC(c2ccc(-c3cn[nH]c3)cc2)CC1 [Compound 70] : 3

Tmax measured on O=C(N1CCCC1)N1CCN(c2ccc(-c3cn[nH]c3)c(F)c2F)CC1 [Compound 72] = 2.33

Measured Tmax of O=C1CCCN1CC1CCN(c2ccc(-c3cn[nH]c3)c(F)c2F)CC1 [Compound 4] : 1.33

====

# Lookup of reported inhibition at 0.1 µM keyed by entry
- tested system: recombinant CYP4A11 (rCYP4A11) (Homo sapiens (Human))
- Sequence (Q02928 5-519): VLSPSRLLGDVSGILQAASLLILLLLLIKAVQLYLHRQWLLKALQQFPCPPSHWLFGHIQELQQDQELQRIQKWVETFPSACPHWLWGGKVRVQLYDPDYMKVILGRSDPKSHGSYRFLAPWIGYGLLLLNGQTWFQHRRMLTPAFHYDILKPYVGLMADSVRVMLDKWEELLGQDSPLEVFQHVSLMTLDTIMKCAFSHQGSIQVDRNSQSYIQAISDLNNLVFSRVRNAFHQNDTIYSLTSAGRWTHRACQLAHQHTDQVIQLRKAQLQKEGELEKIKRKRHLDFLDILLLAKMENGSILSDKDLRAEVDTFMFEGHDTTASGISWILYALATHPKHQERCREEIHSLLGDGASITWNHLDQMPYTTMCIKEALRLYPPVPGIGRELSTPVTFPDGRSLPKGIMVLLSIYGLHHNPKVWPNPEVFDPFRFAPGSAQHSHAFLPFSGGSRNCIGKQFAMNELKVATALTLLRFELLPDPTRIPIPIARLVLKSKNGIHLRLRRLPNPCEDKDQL
- protocol: Inhibition of 20-HETE production by recombinant CYP4A11
- Format: biochemical
- condition context: read-out: rCYP4A11 (% inh @ 100 nM)

Sample records with inhibition at 0.1 µM:
>>> print(df.to_string())
                                   molecule                             tested_system              quantity  readout_value
0  O=C1CCCN1CC1CCN(c2ccc(-c3cn[nH]c3)cc2)C1 (centres unmarked)  recombinant CYP4A11 (rCYP4A11) (Homo sapiens (Human))  inhibition at 0.1 µM          17.5%
1  O=C(Nc1ccc2occc2c1)C1CCN(c2ccc(-c3cn[nH]c3)cc2)CC1  recombinant CYP4A11 (rCYP4A11) (Homo sapiens (Human))  inhibition at 0.1 µM          25.8%
2  O=C1CCCN1CC1CCN(c2ccc(-c3cn[nH]c3)cc2C(F)F)CC1  recombinant CYP4A11 (rCYP4A11) (Homo sapiens (Human))  inhibition at 0.1 µM          58.7%
3  O=C(N1CCCC1)N1CCN(c2ccc(-c3cn[nH]c3)c(F)c2F)CC1  recombinant CYP4A11 (rCYP4A11) (Homo sapiens (Human))  inhibition at 0.1 µM          50.6%
4  O=C1CCCN1CC1CCN(c2ccc(-c3cn[nH]c3)cc2)CC1  recombinant CYP4A11 (rCYP4A11) (Homo sapiens (Human))  inhibition at 0.1 µM          35.4%
5  O=C(C1CCN(c2ccc(-c3cn[nH]c3)cc2)CC1)N1Cc2ccccc2C1  recombinant CYP4A11 (rCYP4A11) (Homo sapiens (Human))  inhibition at 0.1 µM          9.25%
6  O=C(NCC1CCN(c2ccc(-c3cn[nH]c3)cc2)CC1)c1ccccc1  recombinant CYP4A11 (rCYP4A11) (Homo sapiens (Human))  inhibition at 0.1 µM          41.1%

The molecule listed as O=C1CCCCN1CC1CCN(c2ccc(-c3cn[nH]c3)c(F)c2F)CC1 has a reported inhibition at 0.1 µM of 53.9%

Attribution: patent US20250034116A1
